assay-system: T1, rGyr_hel K106Q (Thermotoga maritima, UniProt O51934 59-541, K106Q)
T1 sequence: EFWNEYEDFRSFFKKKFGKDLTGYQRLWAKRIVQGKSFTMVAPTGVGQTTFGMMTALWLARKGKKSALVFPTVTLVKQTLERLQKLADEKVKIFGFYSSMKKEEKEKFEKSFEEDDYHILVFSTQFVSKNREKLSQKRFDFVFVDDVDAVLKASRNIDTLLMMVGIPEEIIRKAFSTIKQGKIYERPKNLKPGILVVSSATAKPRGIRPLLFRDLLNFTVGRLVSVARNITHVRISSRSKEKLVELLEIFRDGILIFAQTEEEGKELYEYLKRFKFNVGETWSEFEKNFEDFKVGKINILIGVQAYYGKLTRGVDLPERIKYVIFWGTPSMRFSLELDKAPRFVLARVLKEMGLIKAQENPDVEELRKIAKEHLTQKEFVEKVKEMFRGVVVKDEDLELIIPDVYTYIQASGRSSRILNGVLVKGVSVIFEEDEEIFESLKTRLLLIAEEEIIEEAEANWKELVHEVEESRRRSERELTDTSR
procedure-summary: fluorescence anisotropy
measured-metric: pKd
Lab note: report pKd as minus log10 of the concentration in molar units, number only.

60-base ssDNA (ssDNA) DNA: AAGCCAAGCTTCTAGAGTCAGCCCGTGATATTCATTACTTCTTATCCTAGGATCCCCGTT | 6.60

Let's switch to this binder now.
[ask] Using the record for 60 bp dsDNA (dsDNA) DNA 1: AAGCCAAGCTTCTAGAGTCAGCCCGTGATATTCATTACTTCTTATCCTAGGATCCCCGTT DNA 2: AACGGGGATCCTAGGATAAGAAGTAATGAATATCACGGGCTGACTCTAGAAGCTTGGCTT , state its measured pKd.
[reply] 5.54
